test: particle size (Z-average, hydrodynamic diameter) and PDI by dynamic light scattering (DLS); format: physicochemical; conditions: Example 7: water injected into THF solution of compound (concentration 100 W), water dispersion

{"molecule": "c1ccc2cc3cc4cc5ccccc5cc4cc3cc2c1", "PDI": 0.02}
{"molecule": "CCCc1nc2c(C)cc(-c3nc4ccccc4n3C)cc2n1Cc1ccc(-c2ccccc2C(=O)O)cc1 [Telmisartan, telmisartan, reference compound]", "PDI": 0.34}
{"molecule": "CC(C)CCC[C@@H](C)[C@H]1CC[C@H]2[C@@H]3CC=C4C[C@@H](O)CC[C@]4(C)[C@H]3CC[C@]12C", "PDI": 0.02}
{"molecule": "c1cc2ccc3cccc4ccc(c1)c2c34", "PDI": 0.13}

---

assay: particle size (Z-average, hydrodynamic diameter) and PDI by dynamic light scattering (DLS); type: physicochemical; settings: Example 7: water injected into THF solution of compound (concentration 100 W), water dispersion

{"molecule": "c1ccc2cc3cc4cc5ccccc5cc4cc3cc2c1 [Pentacene, pentacene]", "Particle size (nm)": "116 nm"}
{"molecule": "CC(C)CCC[C@@H](C)[C@H]1CC[C@H]2[C@@H]3CC=C4C[C@@H](O)CC[C@]4(C)[C@H]3CC[C@]12C [Cholesterol, cholesterol]", "Particle size (nm)": "165 nm"}
{"molecule": "c1cc2ccc3cccc4ccc(c1)c2c34 [Pyrene, pyrene]", "Particle size (nm)": "120 nm"}
{"molecule": "CCCc1nc2c(C)cc(-c3nc4ccccc4n3C)cc2n1Cc1ccc(-c2ccccc2C(=O)O)cc1 [Telmisartan, telmisartan, reference compound]", "Particle size (nm)": "10 nm"}
